molecular target: single chain H2A.Z-H2B (single stranded H2A.Z-H2B protein) (budding yeast); assay: CPMG relaxation dispersion NMR
quantity_kind: pKd
Answer as the number alone; pKd is minus log10 of concentration in mol/L.

Need pKd of Chz.core (residues 71–132 of Chz1) (domain or fragment) DMDDAKLDALMGNEGEEEEDDLAEIDTSNIITSGRRTRGKVIDYKKTAEELDKKEPSTGSKD , thanks.
6.66

# credit: paper PMC2768378
